# Test system: MS2 coat protein
# EXPERIMENTAL_PROTOCOL: apparent KD of MS2 coat protein; designed switch direction (-1 OFF switch, 1 ON switch): -1; higher = weaker reporter binding
# MEASUREMENT_CONDITIONS: input ligand: FMN 200 uM
// reported apparent KD of MS2 coat protein for each item listed
Output spec: scalar in nM, unitless text.

QUERY_SEQUENCE	apparent KD of MS2 coat protein (nM)
GGAUAAAAGUCAGGAUAUACGUAUCGCUAGCGAGUAGAAGGGACACAUGAGGAUCACCCAUGUGAGUUCUCAAUAAGAAACACG [Prohibition 61 - Jieux - Exclusion NG 1] (Eterna round: R96, puzzle: Exclusion NG 1)	45.5
GCAGCAUAGAUGAAAAUCUGAUACAUGAGGAUCACCCAUGUACAGGAUAUGGUCUGGAUUACAGGCCAGAAGGGUACAAGCUGC [Eli exng3 - 012] (Eterna round: R96, puzzle: Exclusion NG 3)	15.7
CGGUGUAGAGGAUAUACGUGGAUAUAAGAACAUGAUAAUUUACAUGAGGAUCACCCAUGUAGAAGGCUAUAGCG [JR_Ex2_Sub080] (Eterna round: R97, puzzle: Exclusion 2)	74.8
GUUAACGAUGAGGAUAUAUGAUAUCAAAGCAUCAUAGAAGGCAUCACAUGAGGAUCACCCAUGUGAUCUUCUUG [Mat - Exclusion 6 - JL Mod - D27] (Eterna round: R97, puzzle: Exclusion 6)	120

For the sequence shown here, AGAGUGAGAGGAUAUUGGAUUCCUAACAUGAGGAUCACCCAUGUAGUACGGUGCUACUGACAAGAAGGCUCACUCU [etrenacac ex5r4 #7] (Eterna round: R97, puzzle: Exclusion 5) , give the reported apparent KD of MS2 coat protein.
54.5

---

Quick list: apparent KD of MS2 coat protein per entry.
# Tested on: MS2 coat protein
# EXPERIMENTAL_PROTOCOL: apparent KD of MS2 coat protein; higher = weaker reporter binding
# MEASUREMENT_CONDITIONS: Eterna round: R107; input ligand: arginine 13.2 mM
Quick note: give the figure in µM, leave out the unit.

QUERY_SEQUENCE	apparent KD of MS2 coat protein (µM)
AUGUCAUUGGUGUAGCUGUGAAAUGGCGAUACCAGCGUGGAAACACGCCCUUGGCAGCGCCAAAACAUGAGGAUCACCCAUGUUA [Pardubice]	0.0362
CUUGUGGGCGGAAGGAGCGCGAUUACAUAACAUGAGGAUCACCCAUGUAAGAAAUUAUUCAUGCAGGUAGGUCGCCGUUCGUGGG [Same State Arginine B GF9]	0.0248
AAACGCCACGGAAGGAGCGACAUGAGGAUCACCCAUGUAGAUUUGGCGGAUGCACCCUCCUGUCAGGUAGGUCGCCGUGCGAUAA [XArg-B25]	0.0339
UUUUACAUGAGGAUCACCCAUGUACAUGGGCGAGGACCGGUACGGCCGCCACUCGUGGGACCCACGGGCCCGCUUAGUGGGUACA [LarryB_001]	0.0583
UCAGUGCAAGGAAGGAGCGGGUACAUGAGGAUCACCCAUGUGCAAGUGGUGAGCGUCCGUGCCCAGGUAGGUCGCCUAGCCUGGU [Quisso]	0.056
AAUAAUAGGUGAUCUUGUGUCGUACCGUAACGAGGACCGGUACGGCCGCCACUCGAACAUGAGGAUCACCCAUGUAUGUAUGAUA [whbob_SS_trypto A_f7]	0.0578
AUAUUAAAGAGUGAUACCAGACUACAUGAGGAUCACCCAUGUUACAUUUAAAUAUCAUUUGUCCCUUGGCAGCACAUUAAGUACA [JR_Nu_ExcTheophyB_Sub022]	0.0209
GCACAUGAGGAUCACCCAUGUACAACUGAAGGAGCGAGACAGAACUCAGGUAGGUCGCAGAAUGCACAAUAGCAUACGACAUGGG [Exclusion Arginine A GF20]	0.0202

I'd like to know its apparent KD of MS2 coat protein. The sequence in question is CCUAUGCAGUCGGCCGCCACUGAUAAAAUUAUUUUUACCUCAGAAACAUGAGGAUCACCCAUGUACAGGACCGGGACUGUAUAGG [Ex Tryptophan B 17]
0.0242

Requested read-out: apparent KD of MS2 coat protein. Entry: UGCAUCAUAAUCAUGUUGGUGCUAGGUGAUACCAGCAUCGAAAGAUGCCCUUGGCAGCACCAACAUGAGGAUCACCCAUGUAAUA [(MT)''-(M)'-(T')-(Theo)-(Ms2)_Design1/22_2]
0.0692

apparent KD of MS2 coat protein lookup needed for UGAUUGAACGGAAGGAGCGUGAAGAGAGAGAAACAUGAGGAUCACCCAUGUAGAGAGAGAUCACAGGUAGGUCGCCGAGAGAUUG [11.C] , thanks.
0.0178

---

Parameter: apparent KD of K4 kissing-loop reporter. Scope: all listed entries.
# Test system: K4 kissing-loop RNA reporter;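 further: bound reporter read as fluorescence of individual clusters on recovered sequencing chips by microscopy, with normalized cluster intensities fitted with a binding model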
# EXPERIMENTAL_PROTOCOL: apparent KD of K4 kissing-loop reporter; higher = weaker reporter binding
# MEASUREMENT_CONDITIONS: Eterna round: R107; input ligand: theophylline 20 uM
Write down the numeric answer in µM and omit the unit.

QUERY_SEQUENCE	QUANTITY_KIND	REPORTED_RESULT
CUUGAUGUAGCGGCCGCCACUCUAGAUCCGCAUCGGAUGAGGUACUUGAAGUGAUGUUUUGAGGUGAGGACCGGGCUCUAAAGAA [theeternabot_sameState_KL_Trp_B_16]	apparent KD of K4 kissing-loop reporter	0.452
UAACUCUUGCAGUGAUGUUGCAAGUAAGCUCAGGAUAUCAGGAAACUGAGAAGGGAGCAUCCUGAGCAACUGCAAGAGCUCAGAA [[K1]-[K2]-[F1]-[F2]-[F]'-[K]'-[F]''_Design1]	apparent KD of K4 kissing-loop reporter	0.16
GUAGAUAGGCUACAUCUCUAGUCUAAAGACUAGGAUAUCAGGAAACUGAGAAGGAGUCUCAUUGGAGUGAUGUUCCAAGAAUAAU [KL-SSFMN-A16]	apparent KD of K4 kissing-loop reporter	0.109
AACUGGGUUCGUGAUACCAGCUCACACAUGAGUGAUGUUGAUGUAGUGGGCAAAAUGUGGAGCCCUUGGCAGCACUGUGACCACG [XTheo-B3]	apparent KD of K4 kissing-loop reporter	0.378
UGAUAGGACAGAAGGAGCGGUAGUGAUGUUACCAAAAGGUUAAGGUGUCAAAAGACACCCUACCAGGUAGGUCGCUGUCCUAUCU	apparent KD of K4 kissing-loop reporter	0.126

Consider the record given below.
Returns the measured apparent KD of K4 kissing-loop reporter for the input sequence. Input: UAUAGAGUGACGGCCGCCACUAUUGUGAUUUAAUUGUUAGAGUGAUGUUUUGUUGUUUGAUUUUGUAGGACCGGGUUAUAUGUUA [ecewzmullin]
0.854

---

Listed sequences paired with reported apparent KD of MS2 coat protein
# System: MS2 coat protein
# EXPERIMENTAL_PROTOCOL: apparent KD of MS2 coat protein; higher = weaker reporter binding
# MEASUREMENT_CONDITIONS: Eterna round: R107; input ligand: arginine 13.2 mM
Numbers only here, please. The scale is nM.

QUERY_SEQUENCE	TARGET_OR_TEST_SYSTEM	QUANTITY_KIND	REPORTED_RESULT
CUCCCGUGGUCGGCCGCCACUGGAGGCCUUGCGCGACAUGAGGAUCACCCAUGUGUGCCCGGCGUCAGGACCGGGAUCGCGUGAG [#1 Same State - Tryptophan B Attempt #12 (HarryS)]	MS2 coat protein	apparent KD of MS2 coat protein	17.2
GGAUUACGAAAGUAGUCCUCAAGUUCGAGACGAGGACCGGUACGGCCGCCACUCGAACAUGAGGAUCACCCAUGUAGCGAAAGCU [Tryptophan A 22]	MS2 coat protein	apparent KD of MS2 coat protein	86.6
GUCUGAGUCUGAAGGAGCGACAUGAGGAUCACCCAUGUCUCCCGUUAUGGGAGUUCCUUAGGUCAGGUAGGUCGCAGACUCAGAC [#1 Exclusion - Arginine B Attempt #26 (Inspired by Omei)]	MS2 coat protein	apparent KD of MS2 coat protein	60.9
CCCAAUUUCCGAGAUAUGGGUCCAACUAAACGAGGACCGGUACGGCCGCCACUCGACUACAAACAUGAGGAUCACCCAUGUAAAG [theeternabot_exclusion_MS2_Trp_A_40]	MS2 coat protein	apparent KD of MS2 coat protein	17.6
UCGUGUGUUUCGGAUACCAGUGAAAUCGAUACAUGAGGAUCACCCAUGUGAGAGGAUGUACACCCUUGGCAGCUGUCUGUAGCGG [asczmullin]	MS2 coat protein	apparent KD of MS2 coat protein	26.9
UUAUUUAUAAUGGAUACCAGUAUAAUGGCCGCAAAUCCUGACAUGAGGAUCACCCAUGUAUGCCCUUGGCAGCUGUUAUGGGUUU [XTheo B #23]	MS2 coat protein	apparent KD of MS2 coat protein	34.7
GCACCAGGUACGGAUACCAGCUAUAGGCCCUAUGGGCGACAUGAGGAUCACCCAUGUAAUGGCCCUUGGCAGCUGUACCUGGUGC [SSThB NP+V+V2 #10 +-Same Structure]	MS2 coat protein	apparent KD of MS2 coat protein	120
CUAUUGAUAGCGGCCGCCACUUACUCAUGAGGUAACAACAUGAGGAUCACCCAUGUUUGAGGAUCAAGGACCGGGCUAUUGAUAG [AstrosSSTryB#13]	MS2 coat protein	apparent KD of MS2 coat protein	30
UAUAAUAACUCGGCCGCCACUGGCACAUGAGGAUCACCCAUGUCUAUAUAUAAUAUAUAGUUGCACAGGACCGGGAGAUAUAUAU [Exclusion - Tryptophan B]	MS2 coat protein	apparent KD of MS2 coat protein	10.5
GAGUACACUACGGCCGCCACUCAAGGAGCUACAUAGCUCCUAGACAUGAGGAUCACCCAUGUACCGAGGACCGGGUAGAUCCUUA [Same State Typrtophan B GF2]	MS2 coat protein	apparent KD of MS2 coat protein	129

Here is the next item to consider.
Could you tell me which apparent KD of MS2 coat protein is on file for UUCAGCUAGUCGGCCGCCACUACUUGAGGAUCACCCAAGUAAUCCUAACACUGCUUCGGCAGUGGUAGGACCGGGACUAGCUGAG ?
8.78
